# assay_comment: recombinant barcode read abundance after kanamycin selection (control-corrected) (log10(CPM+1)); higher = more efficient recombination; sequences stand for … in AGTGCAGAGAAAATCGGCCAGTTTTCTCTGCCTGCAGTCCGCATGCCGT…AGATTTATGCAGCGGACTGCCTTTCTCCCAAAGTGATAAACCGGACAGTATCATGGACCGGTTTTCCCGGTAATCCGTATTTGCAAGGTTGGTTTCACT; site = the 11-nt target;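 also: IS621 recombinase and bridge RNA in Escherichia coli cells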
Record form. Attribute: recombinant barcode read abundance (log10). Fill in for each entry.

Summary for this sequence, TCTCGGACTTGGGTTCTAACCTGTTGCCT (site TCACGGACTAG) : recombinant barcode read abundance (log10) is 0.147

Summary for this sequence, CTTTGCCCTTGGGTTCTAACCTGTTGCCT (site CCTTGCCCTAG) : recombinant barcode read abundance (log10) is 0.0734

Summary for this sequence, GTCCTACCTTGGGTTCTAACCTGTTGCCT (site GTCTTACCTAG) : recombinant barcode read abundance (log10) is 0.588

Summary for this sequence, ACATGTCCTTGGGTTCTAACCTGTTGCCT (site ACATGTCCTAA) : recombinant barcode read abundance (log10) is 0.0846

Summary for this sequence, TGGGGTACTTGGGTTCTAACCTGTTGCCT (site TGGCGTACTAG) : recombinant barcode read abundance (log10) is 0.097

Summary for this sequence, CTAAGCGCTTGGGTTCTAACCTGTTGCCA (site CTAAGAGCTTG) : recombinant barcode read abundance (log10) is 0.145

Summary for this sequence, CGGATTGCTTGGGTTCTAACCTGTTGCCT (site CGGATCGCTAG) : recombinant barcode read abundance (log10) is 0.0723

Summary for this sequence, ATGCAACCTTGGGTTCTAACCTGTTGCCT (site ATGCAAGCTAG) : recombinant barcode read abundance (log10) is 0.362

Summary for this sequence, GTAAAACCTTGGGTTCTAACCTGTTGCCT (site ATAAAACCTAG) : recombinant barcode read abundance (log10) is 0.281

Summary for this sequence, TGTTCCTCTTGGGTTCTAACCTGTTGCCT (site TGTTCCTCTAG) : recombinant barcode read abundance (log10) is 0.106

Where these numbers come from: the supplement of paper PMC11208160
